Target: T1, murine CD300LB stably expressed on Jurkat cells (mouse, UniProt Q3U497 18-209)
T1 construct: also called muCD300LB; mouse CD300LB
T1 sequence: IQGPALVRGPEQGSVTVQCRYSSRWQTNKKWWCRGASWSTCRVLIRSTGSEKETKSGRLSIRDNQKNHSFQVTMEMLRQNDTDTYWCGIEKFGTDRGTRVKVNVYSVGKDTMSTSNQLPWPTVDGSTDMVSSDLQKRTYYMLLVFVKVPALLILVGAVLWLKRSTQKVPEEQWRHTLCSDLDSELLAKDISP
Experiment: flow cytometry, stable Jurkat cells, supernatant or 10 ug/mL, isotype subtracted
Exercise: for every item that follows, state its recorded gMFI.
Reply with just the number (in gMFI).

Return value of gMFI for input anti-CD300LB antibody CD-14 (antibody, V domains shown) VH: QIQLVQSGPELKKPGETVKISCKASGYTFTDYSLHWVKQTPEKNLKWMAWINTETGAPTYADDFKGRFAFSLETSSNTAYLLINNLKNEDTATYFCALTMVNYWGQGTTLTVSS VL: DIVMTQSQKFMSTSVGDRVSVTCKASQNVGIRVAWHQQKPGQSPKTLIYSTSYRYSGVPDRFTGSGSGTEFILTISNVQSEDLAEYFCQQYNSYPYTFGGGTKLEIK , no commentary.
950

Return value of gMFI for input anti-CD300LB antibody CD-02 (antibody, V domains shown) VH: QVQLQQPGAELVRPGSSVKLSCQASGYTFTNYWMHWVRQRPIQGLEWIGNIDPSDSETHYNQKFKDRATLTVDKSSSTAYMQLSSLTSEDSAVYYCARSGVYDDEGGDYWGQGTTLTVSS VL: ENVLTQSPAIMSASPGEKVTMTCSASSSVSYIHWYQQKSSTSPKLWIYDTSKLASGVPGRFSGSGSGNSYSLTISSMETEDVATYYCFQGSGYPLTFGAGTKLELK , no commentary.
23

Return value of gMFI for input anti-CD300LB antibody CD-06 (antibody, V domains shown) VH: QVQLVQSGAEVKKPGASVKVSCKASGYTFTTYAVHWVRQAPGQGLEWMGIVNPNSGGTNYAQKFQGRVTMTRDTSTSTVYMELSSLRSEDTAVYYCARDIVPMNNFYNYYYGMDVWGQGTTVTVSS VL: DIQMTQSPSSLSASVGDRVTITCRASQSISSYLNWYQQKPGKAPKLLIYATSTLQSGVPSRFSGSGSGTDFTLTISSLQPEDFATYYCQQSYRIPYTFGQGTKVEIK , no commentary.
-48.7

Data origin: patent US20240254227A1
